Molecular target: VIM-2 (Escherichia coli)
Construct: made in house
Test: biochemical
Conditions: enethiols 6 assayed as sodium salts; 10 min incubation; read-out: IC50 VIM-2 (converted)
parameter measured: IC50

Example entries begin here.
Form field: reported IC50 of O=C(O)/C(S)=C/c1ccccc1F
3.3 µM

Try the compound O=C(O)CN1C(=O)/C(=C/c2ccccc2I)SC1=S
5.9 µM

New cases:
Form field: reported IC50 of O=C(O)/C(S)=C/c1c(F)ccc(F)c1F
0.3 µM

Try the compound CN1CCN(NC(=O)CN2C(=O)/C(=C/c3ccc(F)cc3)SC2=S)CC1
> 50 µM

Try the compound O=C(O)/C(S)=C/c1c(Cl)ccc(Cl)c1Cl [ML302F, reference compound]
0.04 µM

Try the compound O=C(O)/C(S)=C/c1ccccc1Cl
0.4 µM

Try the compound O=C(O)/C(S)=C/c1ccccc1I
3.5 µM

Try the compound Cc1cccc(C)c1/C=C1\SC(=S)N(CC(=O)O)C1=O
18.7 µM

Try the compound O=C(O)CN1C(=O)/C(=C/c2ccccc2)SC1=S
36.8 µM

Try the compound O=C(O)/C(S)=C/c1c(Cl)cccc1Cl
0.03 µM

---

Target: SPM-1 (Pseudomonas aeruginosa)
Experiment: SPM-1 inhibition, fluorogenic cephalosporin (FC5) hydrolysis
Type: biochemical
Conditions: enethiols 6 assayed as sodium salts; 10 min incubation; read-out: IC50 SPM-1 (converted)
Mark yes (1) only when IC50 stays strictly below 0.1 µM. Values equal to the cut-off are no (0).

Threshold test, IC50 < 0.1 µM: CN1CCN(NC(=O)CN2C(=O)/C(=C/c3ccccc3F)SC2=S)CC1
no (0)

New cases:
Threshold test, IC50 < 0.1 µM: CN1CCN(NC(=O)CN2C(=O)/C(=C/c3cc(Cl)ccc3Cl)SC2=S)CC1
no (0)

---

Molecular target: SPM-1 (Pseudomonas aeruginosa, UniProt Q8G9Q0)
Sequence (Q8G9Q0 entry or part of it): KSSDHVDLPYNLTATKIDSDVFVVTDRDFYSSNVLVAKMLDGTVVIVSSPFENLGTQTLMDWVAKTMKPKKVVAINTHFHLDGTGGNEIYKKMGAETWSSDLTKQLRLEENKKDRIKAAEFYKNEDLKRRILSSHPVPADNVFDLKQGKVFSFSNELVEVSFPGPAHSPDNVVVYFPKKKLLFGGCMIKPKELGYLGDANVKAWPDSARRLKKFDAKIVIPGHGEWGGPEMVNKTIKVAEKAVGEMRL
Assay: SPM-1 inhibition, fluorogenic cephalosporin (FC5) hydrolysis
Assay type: biochemical
Conditions: enethiols 6 assayed as sodium salts; 10 min incubation; read-out: IC50 SPM-1 (converted)
Catalogue of compounds with associated IC50

Example entries begin here.
Form field: reported IC50 of COc1ccc(/C=C2\SC(=S)N(CC(=O)NN3CCN(C)CC3)C2=O)cc1
> 50 µM

Try the compound CN1CCN(NC(=O)CN2C(=O)/C(=C/c3ccc(Br)cc3)SC2=S)CC1
> 50 µM

Alright, here's another compound for you.
Form field: reported IC50 of O=C(O)CN1C(=O)/C(=C/c2ccccc2)SC1=S
> 50 µM

---

Molecular target: SPM-1 (Pseudomonas aeruginosa)
Assay: SPM-1 inhibition, fluorogenic cephalosporin (FC5) hydrolysis
Assay type: biochemical
Settings: enethiols 6 assayed as sodium salts; 10 min incubation; read-out: IC50 SPM-1 (converted)
parameter measured: log10 of IC50 (log10 of the value in nM)
Lab note - IC50 converted to log10 from values in nM.

Form field: reported log10 of IC50 of CN1CCN(NC(=O)CN2C(=O)/C(=C/c3c(F)cccc3Cl)SC2=S)CC1 [Compound 5j]
2.00

Try the molecule O=C(O)/C(S)=C/c1c(F)cccc1F [Compound 6p]
1.78

Try the molecule O=C(O)/C(S)=C/c1ccccc1F [Compound 6f]
2.48

Try the molecule O=C(O)/C(S)=C/c1c(F)cccc1Cl [Compound 6j]
0.63

Alright, here's another molecule for you.
Form field: reported log10 of IC50 of O=C(O)/C(S)=C/c1ccc(F)cc1 [Compound 6c]
3.61

---

Biological target: SPM-1 (Pseudomonas aeruginosa)
Experiment: SPM-1 inhibition, fluorogenic cephalosporin (FC5) hydrolysis
Assay type: biochemical
Conditions: enethiols 6 assayed as sodium salts; 10 min incubation; read-out: IC50 SPM-1 (converted)
parameter measured: IC50

Form field: reported IC50 of Cc1ccc(/C=C2\SC(=S)N(CC(=O)NN3CCN(C)CC3)C2=O)cc1
> 50 µM

Try the molecule CN1CCN(NC(=O)CN2C(=O)/C(=C/c3ccccc3)SC2=S)CC1
> 50 µM

New cases:
Form field: reported IC50 of COc1ccc(/C=C2\SC(=S)N(CC(=O)O)C2=O)cc1
> 50 µM
